This listing pairs compounds with measured IC50.
tested on: A375 cells; assay: A375 cell proliferation assay (1), resazurin, 96-well; format: cell-based; details: Homo sapiens, A-375, inhibition of cell proliferation

Ask: # lookup: IC50 of CC(=O)Nc1cc(-c2cc(-c3cc(NC(=O)NCCC(C)(C)C(F)(F)F)c(F)cc3C)cc(C3CC3)n2)ccn1
Result: 0.5 to 1 µM

Ask: # lookup: IC50 of CCC(C)CCNC(=O)Nc1cnc(C)c(-c2ccnc(-c3ccnc(NC(=O)C4CC4)c3)c2)c1 (centres unmarked)
Result: 1 to 10 µM

Ask: # lookup: IC50 of CC(=O)Nc1cc(-c2cc(-c3cc(NC(=O)NC4CCC(F)(F)CC4)c(F)cc3C)cc(OCCO)n2)ccn1
Result: ≤ 0.1 µM

Ask: # lookup: IC50 of COC(=O)Nc1cc(-c2cc(-c3cc(NC(=O)NC4CC(C)(C)C4)cnc3C)cc(OCCO)n2)ccn1
Result: 1 to 10 µM

Ask: # lookup: IC50 of Cc1ncc(NC(=O)NCCC(C)(C)C)cc1-c1cc(N2CCOCC2)nc(N2CCOCC2)c1
Result: 1 to 10 µM

Continuing:
Ask: # lookup: IC50 of CC(=O)Nc1cc(-c2cc(-c3cc(NC(=O)NCCC4(C)CC4)ccc3C)cc(N3CCOCC3)n2)ccn1
Result: 0.1 to 0.5 µM

Ask: # lookup: IC50 of COC[C@@H]1CCN(C(=O)Nc2cc(-c3cc(-c4ccnc(NC(=O)OC)c4)cnn3)c(C)cc2F)C1
Result: 1 to 10 µM

Ask: # lookup: IC50 of COC(=O)Nc1cc(-c2cnnc(-c3cc(NC(=O)N4CCC(CC(F)(F)F)C4)c(F)cc3C)c2)ccn1 (centres unmarked)
Result: 1 to 10 µM

Ask: # lookup: IC50 of Cc1cc(F)c(NC(=O)NCCC(F)F)cc1-c1cc(OCCO)nc(-c2ccnc(NC(=O)C3CC3)c2)c1
Result: 1 to 10 µM
